assay: chemical genetic growth profiling, strain panel (AID 1159580);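 note: tested at 20 µM; growth read once vehicle control cultures reached saturation at 30 °C; 1 = growth at the plate median or of vehicle wells; lower values mean less growth of the strain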; conditions: S. cerevisiae deletion strains, growth OD, locus YDL005C, strain med2, hits give low values
Among all 5,500 compounds or so, about 2,000 (36%) were called active. About 18% were inconclusive and are not listed. The list shows a part of the results.
measurement.type: normalized growth

compound: CC(C)c1c(C(=O)c2ccccc2)c(-c2ccccc2)c(-c2ccc(F)cc2)n1CC[C@@H](O)C[C@@H](O)CC(=O)O
measurement.type: normalized growth
reported.value: 0.987 (inactive)
--
compound: CC1=C(/C=C/C(C)=C/C=C/C(C)=C/C=C/C=C(C)/C=C/C=C(C)/C=C/C2=C(C)C(=O)C(O)CC2(C)C)C(C)(C)CC(O)C1=O (stereo not given)
measurement.type: normalized growth
reported.value: 1.05 (inactive)
--
compound: C[C@H]1CC2C([C@@H](O)C[C@@]3(C)C2CC[C@]3(O)C(=O)CO)[C@@]2(C)C=CC(=O)C=C12 (stereo not given in full)
measurement.type: normalized growth
reported.value: 0.987 (inactive)
--
compound: CCCCNc1cc(C(=O)O)cc(S(N)(=O)=O)c1Oc1ccccc1
measurement.type: normalized growth
reported.value: 0.999 (inactive)
--
compound: N=c1ccn2c(n1)O[C@@H]1C2O[C@H](CO)[C@H]1O (stereo not given in full)
measurement.type: normalized growth
reported.value: 0.992 (inactive)
--
compound: ClC1=C(Cl)C2(Cl)C3C(Cl)C=CC3C1(Cl)C2(Cl)Cl (stereo not given)
measurement.type: normalized growth
reported.value: 1.01 (inactive)
--
compound: NC(=O)c1ccc[n+]([C@@H]2O[C@H](COP(=O)([O-])OP(=O)(O)OC[C@H]3O[C@@H](n4cnc5c(N)ncnc54)[C@H](O)[C@@H]3O)[C@@H](O)[C@H]2O)c1
measurement.type: normalized growth
reported.value: 1.02 (inactive)
--
compound: CN(C)C(=S)SSC(=S)N(C)C
measurement.type: normalized growth
reported.value: 0.0735 (active)
--
compound: CCOC(=O)c1c(C)cc(O)c(C=O)c1O
measurement.type: normalized growth
reported.value: 0.903 (active)
--
compound: ClC1=C(Cl)C2(Cl)C3C4C=CC(C4)C3C1(Cl)C2(Cl)Cl (stereo not given)
measurement.type: normalized growth
reported.value: 0.999 (inactive)
--
compound: CC(C)(O)[C@@H]1[C@H]2OC(=O)[C@@H]1[C@]1(O)C[C@H]3O[C@]34C(=O)O[C@H]2[C@]14C
measurement.type: normalized growth
reported.value: 0.988 (inactive)
--
compound: O=C(O)c1c2ccccc2cc2ccccc12
measurement.type: normalized growth
reported.value: 0.99 (inactive)
--
compound: CC(N)CCCC(C)(C)O (stereo not given)
measurement.type: normalized growth
reported.value: 0.983 (inactive)
--
compound: Cc1cc(O)c(C)c(O)c1C(=O)O
measurement.type: normalized growth
reported.value: 0.984 (inactive)
--
compound: Cc1[nH]c(C)c(Cl)c(=O)c1Cl
measurement.type: normalized growth
reported.value: 1.01 (inactive)
--
compound: Oc1cc(Cl)ccc1Oc1ccc(Cl)cc1Cl
measurement.type: normalized growth
reported.value: 0.0705 (active)
--
compound: CC(=O)O[C@H]1[C@@H]2[C@@H](OC(=O)Cc3ccccc3)[C@@H](C)C[C@]2(OC(C)=O)C(=O)/C(C)=C/[C@H]2[C@H](CC[C@@]13CO3)C2(C)C
measurement.type: normalized growth
reported.value: 0.976 (inactive)
--
compound: COc1ccc2c(c1)OCc1c-2oc2cc(OC)ccc12
measurement.type: normalized growth
reported.value: 1.02 (inactive)
--
compound: CC1=C(/C=C/C(C)=C/C=C/C(C)=C/C=C/C=C(C)/C=C/C=C(C)/C=C/C2=C(C)C(=O)CCC2(C)C)C(C)(C)CCC1=O
measurement.type: normalized growth
reported.value: 0.981 (inactive)
--
compound: COP(=O)(OC)OC=C(Cl)Cl
measurement.type: normalized growth
reported.value: 0.997 (inactive)

---

assay: chemical genetic growth profiling, strain panel (AID 1159580);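 note: tested at 20 µM; growth read once vehicle control cultures reached saturation at 30 °C; 1 = growth at the plate median or of vehicle wells; lower values mean less growth of the strain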; settings: S. cerevisiae deletion strains, growth OD, locus YDR297W, strain sur2, hits give low values
Out of some 5,500 compounds screened, about 2,000 (36%) were called active. Inconclusive results (about 18%) are left out. The list shows a part of the results.
measurement.type: normalized growth

molecule: CCN(CC)CCCC(C)Nc1ccnc2cc(Cl)ccc12 (stereo unspecified)
reported.value: 1.03

molecule: CCN(CC)CCCC(C)Nc1c2ccc(Cl)cc2nc2ccc(OC)cc12 (stereo unspecified)
reported.value: 1

molecule: ClC1=C(Cl)C2(Cl)C3C(Cl)C=CC3C1(Cl)C2(Cl)Cl (stereo unspecified)
reported.value: 1

molecule: CC(NCCc1ccc(O)cc1)C(O)c1ccc(O)cc1 (stereo unspecified)
reported.value: 1.01

molecule: COc1cc2c(cc1OC)Cc1cc(OC)c(OC)cc1Cc1cc(OC)c(OC)cc1C2
reported.value: 1.03

molecule: NCC1CCC(C(=O)O)CC1 (stereo unspecified)
reported.value: 0.973

---

assay: chemical genetic growth profiling, strain panel (AID 1159580);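 note: tested at 20 µM; growth read once vehicle control cultures reached saturation at 30 °C; 1 = growth at the plate median or of vehicle wells; lower values mean less growth of the strain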; conditions: S. cerevisiae deletion strains, growth OD, locus YDL101C, strain DUN1, hits give low values
The whole screen tested about 5,500 compounds, of which about 2,000 (36%) were called active. Inconclusive results (about 18%) are left out. The list shows a part of the results.
measurement.type: normalized growth

compound: COc1ccc2c(C)cc(=O)oc2c1
reported.value: 1.02
//
compound: CCCCNc1cc(C(=O)O)cc(S(N)(=O)=O)c1Oc1ccccc1
reported.value: 0.992
//
compound: Clc1cccc(Cl)c1CSC1=NCCCN1C1CCCCC1
reported.value: 1
//
compound: COc1ccc(NNC(=O)c2sc3ccccc3c2Cl)cc1
reported.value: 0.954
//
compound: O=C1c2cccc3cc([N+](=O)[O-])cc(c23)C(=O)N1CCO
reported.value: 0.974
//
compound: Nc1ccccc1SCc1c(Cl)cccc1Cl
reported.value: 0.953
//
compound: C=C1C([C@]2(C)C(CC(=O)OC)[C@@](C)(COC(C)=O)OC(=O)C[C@@H]2OC(C)=O)[C@@H](OC=O)[C@H](OC(=O)C(O)C(C)CC)[C@@]2(C)[C@H](c3ccoc3)CC(=O)C12O (stereo not given in full)
reported.value: 1.02
//
compound: COc1ccc2c(c1)OCc1c-2oc2cc(OC)ccc12
reported.value: 0.915
//
compound: O=C1c2cccc3c([N+](=O)[O-])ccc(c23)C(=O)N1Cc1ccco1
reported.value: 0.873
//
compound: N#CC(C#N)=C(SCc1c(Cl)cccc1Cl)SCc1c(Cl)cccc1Cl
reported.value: 0.988

---

assay: chemical genetic growth profiling, strain panel (AID 1159580);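 note: tested at 20 µM; growth read once vehicle control cultures reached saturation at 30 °C; 1 = growth at the plate median or of vehicle wells; lower values mean less growth of the strain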; settings: S. cerevisiae deletion strains, growth OD, locus YOR329C, strain SCD5
Out of some 5,500 compounds screened, about 2,000 (36%) were called active. Inconclusive results (about 18%) are left out. Cut-off read from the data, not from the text of the source: active = normalized growth mostly below about 0.91 (no sharp cut-off); inconclusive = no clear call, values can overlap the other calls; inactive = mostly above about 0.92. The list shows a part of the results.
Classes used: class 1 (active), class 0 (inactive)

molecule: COc1cc(NC(=S)NNS(=O)(=O)c2ccc(C)cc2)c(OC)cc1Cl
answer.label: class 0

molecule: S=C(Nc1ccc(Cl)cc1Cl)N(c1cccc(Cl)c1)c1nc2ccccc2s1
answer.label: class 0

molecule: Cc1ccc(/C=C2\CSc3ccc(F)cc3C2=O)cc1
answer.label: class 0

molecule: O=S(=O)(Nc1cccc(CCc2ccccn2)c1)c1cc(Cl)c(Cl)cc1Cl
answer.label: class 0

molecule: Cc1ccc(OCC2SCCN2C(=O)c2ccc(C(F)(F)F)cc2)c([N+](=O)[O-])c1 (configuration not stated)
answer.label: class 0

molecule: O=C(NNc1ccccc1F)c1ccno1
answer.label: class 0

molecule: COc1ccc(NNC(=O)c2sc3ccccc3c2Cl)cc1
answer.label: class 0

molecule: Nc1ccccc1SCc1c(Cl)cccc1Cl
answer.label: class 0

molecule: Cc1nnsc1C(=O)NNc1ccc(F)cc1F
answer.label: class 0

molecule: Cc1cc(Cl)ccc1NNC(=O)c1ccno1
answer.label: class 0

molecule: N#Cc1ccc(S(=O)(=O)Nc2ccccc2Oc2ccc(Cl)cc2Cl)cc1
answer.label: class 0

molecule: Cc1cc(Cl)ccc1NNC(=O)c1snnc1C
answer.label: class 0

molecule: O=C(CSc1nnnn1-c1ccccc1)c1ccccc1
answer.label: class 0

molecule: Cc1nn(Cc2cccc(C(=O)Nc3ccc(Cl)cc3)c2)c(C)c1Br
answer.label: class 0

molecule: Cc1c(Cc2ccc(F)cc2)c(=O)oc2cc(O)ccc12
answer.label: class 0

molecule: Cc1cc(NNC(=O)c2ccccc2Cl)nc2c1c(C)nn2C
answer.label: class 0

molecule: O=C(Oc1ccc(C(F)(F)F)cc1[N+](=O)[O-])c1cccc(Cl)c1
answer.label: class 0

molecule: O=S(=O)(Nc1cccc2nsnc12)c1cc(Cl)sc1Cl
answer.label: class 0

molecule: Cc1cc(C(=O)Nc2ccc(Cl)cc2)nn1C(C)(C)C
answer.label: class 0

molecule: Cc1ccc(Sc2c(Sc3ccc(C)cc3)c(=O)c2=O)cc1
answer.label: class 0

molecule: CSC1=NNC(c2nn(C)cc2Cl)S1 (configuration not stated)
answer.label: class 1

molecule: COc1ccc(CN2CSC(=S)N(Cc3ccc(OC)cc3)C2)cc1
answer.label: class 0
